Source listed as the supplement of paper PMC10567573.

B1: CDC25B (parent)
chain: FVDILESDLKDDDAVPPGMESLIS

Variants of: B1
ASSAY: protein stability index of a GFP-peptide fusion (GPS, HEK-293T) (PSI 1-6); higher = more stable;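 note: lentivirally expressed fusions sorted by FACS into six bins by GFP to DsRed ratio, PSI derived from sequencing read proportions per bin multiplied by bin number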
CONDITION LABEL: c terminus: a fixed tail appended
REPORTED PROPERTY: protein stability index
Quick one: just the number, no unit, thanks!

GET /values?readout=protein stability index&item= A14H 2.75

Entry under review: M19I . Reported protein stability index? 2.85

Would you kindly share the measured protein stability index for E6D ? 2.88

Looking for the measured protein stability index of L9H , can you help? 3.33

So what does the record say about protein stability index for D11M ? 2.6

What value of protein stability index has been reported for the following variant? F1Q 5.4

Consider the variant shown here: M19N What is its recorded protein stability index? 3.4

protein stability index for I23V ? 2.65

# lookup: protein stability index of L5I 2.46

Bench note: what protein stability index did K10I show? 2.72

Which protein stability index reading was recorded for the variant S24Y ? 2.47

Consider the variant L22W and give its measured protein stability index. 2.43

// lookup protein stability index for D12I 2.21

Could you share which protein stability index value was measured for S24G ? 3.02

Look up protein stability index for this variant: G18T 3.28

Give its protein stability index value. Item: A14N 3.29

Please look up its protein stability index: D12A 2.84
